tested on: U2OS; assay: Cell viability, CellTiter-Glo assay, U2OS; format: cell-based
Property: pEC50; scope: individual molecules
FYI, pEC50 means -log10 of a concentration in mol per litre.

[[record]]
molecule = "CN(C(=O)CCl)c1ccccc1C(=O)c1ccccc1 [IITK3001]"
measured_number = 6.46


Consider the additional molecule presented here.
Give its pEC50 value. Item: CN(C(=O)CBr)c1ccccc1C(=O)c1ccccc1 [IITK3002]
6.89

====

test system: U2OS; assay: Cell viability, CellTiter-Glo assay, U2OS; assay type: cell-based; settings: Homo sapiens
recorded_endpoint: pEC50
# reply with the number alone; pEC50 is -log10 of concentration in mol/L

Some compounds with known pEC50 results, for comparison:
[[record]]
compound = "CN(C(=O)CCl)c1ccccc1C(=O)c1ccccc1"
assayed_target = "U2OS"
measured_number = 6.45

[[record]]
compound = "C#CCOC(=O)Nc1ccc(N(C)C(=O)CBr)c(C(=O)c2ccccc2)c1"
assayed_target = "U2OS"
measured_number = 6.11

[[record]]
compound = "C=CCN(C(=O)COc1c(F)c(F)c(F)c(F)c1F)c1ccccc1C(=O)c1ccccc1"
assayed_target = "U2OS"
measured_number = 5.84

[[record]]
compound = "C=CCN(C(=O)CCl)c1ccccc1C(=O)c1ccccc1"
assayed_target = "U2OS"
measured_number = 6.22

[[record]]
compound = "C=CCN(c1ccccc1C(=O)c1ccccc1)S(=O)(=O)C=C"
assayed_target = "U2OS"
measured_number = 5.91


What value of pEC50 has been recorded for this entry: `C#CCOC(=O)Nc1ccc(N(C)C(=O)CCl)c(C(=O)c2ccccc2)c1`
5.53

Requested read-out: pEC50. Entry: `C#CCN(C(=O)CBr)c1ccccc1C(=O)c1ccccc1`
6.43

Name the reported pEC50 value associated with the compound `C#CCN(C(=O)CCl)c1ccccc1C(=O)c1ccccc1`
5.89

Requested field: pEC50. Item: O=C(CBr)Nc1ccccc1C(=O)c1ccccc1 [IITK3013, N-(2-benzoylphenyl)-2-bromoacetamide]
5.82

====

The following compounds are listed with their measured EC50 values.
test system: MDA-MB-231; experiment: Cell viability, CellTiter-Glo assay, MDA-MB-231; assay type: cell-based; details: Homo sapiens; MDA-MB-231, cell viability
Quick reminder: number only, in nM, skip the unit.

[[record]]
sample_smiles = "CN(C(=O)CBr)c1ccccc1C(=O)c1ccccc1"
assayed_target = "MDA-MB-231"
measured_number = 26


Given `CN(C(=O)CCl)c1ccccc1C(=O)c1ccccc1` , state its recorded EC50.
184

====

test system: cancer cells; assay: Antiproliferative potency against cancer cells / panel of cancer cell lines; format: cell-based; conditions: cell line not stated; read-out: EC50, inhibition of cancer cell proliferation
recorded_endpoint: pEC50
Scale for pEC50: -log10 of concentration given in mol/L; no unit attached.

[[record]]
sample_smiles = "CN(C(=O)CCl)c1ccccc1C(=O)c1ccccc1"
measured_number = 7.15


Switching to the query record.
Name the recorded pEC50 for `CN(C(=O)CBr)c1ccccc1C(=O)c1ccccc1` .
8.52

====

test system: Huh-7 cells; test: Cell viability, luminescence-based CellTiter-Glo assay, Huh-7 cells; conditions: Homo sapiens, Huh-7, Huh-7 cells, cell viability; read-out: EC50 Huh-7
recorded_endpoint: EC50 (µM)
Respond with the bare value in µM.

[[record]]
compound = "C#CCOC(=O)Nc1ccc(N(C)C(=O)CCl)c(C(=O)c2ccccc2)c1 [IITK3052]"
assayed_target = "Huh-7 cells"
recorded_endpoint = "EC50"
readout_unit = "µM"
measured_number = 32.8

[[record]]
compound = "Cc1ccc(-c2ccc(C(=O)c3ccccc3N(C)C(=O)CBr)cc2)cc1 [IITK3057]"
assayed_target = "Huh-7 cells"
recorded_endpoint = "EC50"
readout_unit = "µM"
measured_number = 0.018

[[record]]
compound = "C#CCN(C(=O)CCl)c1ccccc1C(=O)c1ccccc1 [IITK3003]"
assayed_target = "Huh-7 cells"
recorded_endpoint = "EC50"
readout_unit = "µM"
measured_number = 0.0436


Pending compound:
Return reported EC50; argument: CN(C(=O)CBr)c1ccccc1C(=O)c1ccc(-c2ccccc2)cc1 [IITK3056]
0.013

====

Quick list: EC50 per entry.
test system: 22Rv1; assay: Cell viability, CellTiter-Glo assay, 22Rv1; type: cell-based; conditions: Homo sapiens, 22Rv1, 22Rv1, cell viability

Examples with answers:
[[record]]
compound = "CN(C(=O)COc1ccc(Br)cc1)c1ccccc1C(=O)c1ccccc1 [IITK3009]"
recorded_endpoint = "EC50"
result = "> 20 µM"

[[record]]
compound = "O=C(CBr)Nc1ccc([N+](=O)[O-])cc1C(=O)c1ccccc1 [IITK3051]"
recorded_endpoint = "EC50"
result = "> 20 µM"


Attention now shifts to the item below.
Any idea what its EC50 is? The compound is C#CCN(C(=O)COc1ccccc1)c1ccccc1C(=O)c1ccccc1 [IITK3029]
> 20 µM

====

system: Huh-7 cells; experiment: Cell viability, luminescence-based CellTiter-Glo assay, Huh-7 cells; conditions: Homo sapiens, Huh-7, Huh-7 cells, cell viability; read-out: EC50 Huh-7
Parameter pEC50: see the listing below.
// scale note: pEC50 = -log10(conc_M); give the bare number

These solved cases illustrate the format of a correct answer.
[[record]]
sample_smiles = "CN(C(=O)CCl)c1ccccc1C(=O)c1ccc(-c2cccc(Oc3ccccc3)c2)cc1"
assayed_target = "Huh-7 cells"
measured_number = 7.44

[[record]]
sample_smiles = "COc1ccc(-c2ccc(C(=O)c3ccccc3N(C)C(=O)CBr)cc2)cc1"
assayed_target = "Huh-7 cells"
measured_number = 7.80

[[record]]
sample_smiles = "CN(C(=O)CCl)c1ccccc1C(=O)c1ccc(-c2ccc(C#N)cc2)cc1"
assayed_target = "Huh-7 cells"
measured_number = 7.59

[[record]]
sample_smiles = "C#CCN(C(=O)CBr)c1ccccc1C(=O)c1ccccc1"
assayed_target = "Huh-7 cells"
measured_number = 8.33


Lab note: next molecule to report on.
Which pEC50 value is on record for `CN(C(=O)CBr)c1ccccc1C(=O)c1ccc(-c2cccc(Oc3ccccc3)c2)cc1` ?
7.61

====

tested on: Huh-7 cells; assay: Combination cell viability experiments with thiols, ferroptosis modulators and cell death inhibitors in Huh-7 cells; type: cell-based; details: combination with GSH, NAC, BSO, Fer-1, deferoxamine, RSL3, FIN56, Erastin, QVD-OPh, necrostatin-1; Huh-7 and 4T1
recorded_endpoint: cell death mechanism from combination experiments

[[record]]
sample_smiles = "CN(C(=O)CBr)c1ccccc1C(=O)c1ccccc1"
assayed_target = "Huh-7 cells"
result = "ferroptosis"

[[record]]
sample_smiles = "CN(C(=O)CCl)c1ccccc1C(=O)c1ccccc1"
assayed_target = "Huh-7 cells"
result = "ferroptosis"


====

tested on: Jurkat J6; experiment: Cell viability, CellTiter-Glo assay, Jurkat J6; assay type: cell-based; settings: Homo sapiens
recorded_endpoint: EC50

[[record]]
sample_smiles = "CN(C(=O)CCl)c1ccccc1C(=O)c1ccccc1"
result = "222 nM"


// next entry
Param readout = EC50; param system = Jurkat J6; param query = `CN(C(=O)CBr)c1ccccc1C(=O)c1ccccc1` ; response: value
37 nM

====

tested on: 22Rv1; experiment: Cell viability, CellTiter-Glo assay, 22Rv1; assay type: cell-based; details: Homo sapiens, 22Rv1, 22Rv1, cell viability
pEC50: −log10 of the molar value.
recorded_endpoint: pEC50

[[record]]
molecule = "C=CS(=O)(=O)N(C)c1ccccc1C(=O)c1ccccc1"
recorded_endpoint = "pEC50"
result = "< 4.70"

[[record]]
molecule = "CN(C(=O)COc1ccc(F)cc1)c1ccccc1C(=O)c1ccccc1"
recorded_endpoint = "pEC50"
result = "< 4.70"


Any idea what pEC50 was measured for `CN(C(=O)CCl)c1ccccc1C(=O)c1ccccc1` ?
6.83

What does the data say about its pEC50? Entry: `CC(C)N(C(=O)CCl)c1ccccc1C(=O)c1ccccc1`
< 4.70

Data request, read-out pEC50, for `C#CCN(C(=O)COc1ccc(F)cc1)c1ccccc1C(=O)c1ccccc1`
< 4.70

Could you share which pEC50 value was measured for C=CC(=O)N(C)c1ccccc1C(=O)c1ccccc1 [IITK3010, N-(2-benzoylphenyl)-N-methylacrylamide] ?
< 4.70

Using the record for O=C(CCl)Nc1ccccc1C(=O)c1ccccc1 [IITK3012, N-(2-benzoylphenyl)-2-chloroacetamide] , report its pEC50.
< 4.70

So what's the measured pEC50 for this one? `O=C(c1ccccc1)c1ccccc1N(Cc1ccccc1)C(=O)COc1ccc(F)cc1`
< 4.70

Recorded pEC50 for `O=C(c1ccccc1)c1ccccc1N(Cc1ccccc1)C(=O)COc1ccccc1` , please?
< 4.70

====

Catalogue of log10 EC50 readings, one per entry.
system: Huh-7 cells; experiment: Cell viability, luminescence-based CellTiter-Glo assay, Huh-7 cells; conditions: Homo sapiens, Huh-7, Huh-7 cells, cell viability; read-out: EC50 Huh-7
In plain terms, each number is the log10 of measured EC50 in nM.

[[record]]
sample_smiles = "CN(C(=O)CCl)c1ccccc1C(=O)c1ccc(-c2ccc(F)cc2F)cc1"
assayed_target = "Huh-7 cells"
measured_number = 0.95


Query (molecule): `CN(C(=O)CCl)c1ccccc1C(=O)c1ccccc1` ; field requested: log10 EC50
2.37

Fill blank: measured log10 EC50 of the molecule `CN(C(=O)CBr)c1ccccc1C(=O)c1ccccc1` is ____.
1.51

Returns the measured log10 EC50 for the input molecule. Input: `CC(C)N(C(=O)CCl)c1ccccc1C(=O)c1ccccc1`
4.29

# get_value(readout='log10 EC50', item= `CN(C(=O)CBr)c1ccccc1C(=O)c1ccc(-c2cccc([N+](=O)[O-])c2)cc1` )
0.54

If you can, please state the reported log10 EC50 value of `COc1ccc(-c2ccc(C(=O)c3ccccc3N(C)C(=O)CCl)cc2)cc1` .
1.28

Fill in the blank: the reported log10 EC50 of `CN(C(=O)CBr)c1ccccc1C(=O)c1ccc(-c2ccc(C#N)cc2)cc1` is ____.
3.68

Reported log10 EC50, molecule `CN(C(=O)CBr)c1ccccc1C(=O)c1ccc(-c2ccc(C=O)cc2)cc1` : ____
1.90

Field request: log10 EC50 | item: `CN(C(=O)CCl)c1ccccc1C(=O)c1ccc(-c2cccc([N+](=O)[O-])c2)cc1`
0.49

Name the recorded log10 EC50 for `CN(C(=O)CBr)c1ccccc1C(=O)c1ccc(-c2ccc(F)cc2F)cc1` .
1.08

Cited source for all entries: patent US20250099407A1
